System: HME-TERT-EGFR (del E746-A750) cells
ASSAY PROCEDURE: MTS cell proliferation assay, HME-TERT cells carrying EGFR mutation
Type: cell-based, human
CONDITION DESCRIPTION: Homo sapiens; HME-TERT-EGFR (del E746-A750), MTS, 96 h, 0.5% FBS; read-out: Inhibition of cell proliferation: EC50, EGFR
REPORTED ENDPOINT: pEC50
Reminder that pEC50 means the negative base-10 logarithm of the concentration expressed in mol/L.

Asked: What measured pEC50 goes with `N=C(N)NC(=N)NCCc1ccccc1` ?
Given back: 3.31

* * *

Tested on: HME-TERT-EGFR (del E746-A750) cells
ASSAY PROCEDURE: MTS cell proliferation assay, HME-TERT cells carrying EGFR mutation
Assay type: cell-based, human
CONDITION DESCRIPTION: Homo sapiens; HME-TERT-EGFR (del E746-A750), MTS, 72 h, 0.5% FBS; read-out: Inhibition of cell proliferation: EC50, EGFR
Method: To investigate the effect of phenformin on proliferation of cells carrying an EGFR mutation, HME cell proliferation assays were performed. An isogenic HME-TERT cell line carrying a mutation in EGFR (del E746-A750) was generated by a “knock in” approach. […]
REPORTED ENDPOINT: EC50 (µM)
Report the figure in µM without appending any unit label.

Asked: Field request: EC50 | item: N=C(N)NC(=N)NCCc1ccccc1 [phenformin]
Given back: 632
